# Test system: transactivating tegument protein VP16 (Human herpesvirus 1)
# assay_comment: VP16 transactivation reporter inhibitors, counter-screen for SRC2 inhibitor project, cell-based, luminescence, single concentration (AID 652007)
# measurement_conditions: cell-based VP16 transactivation luciferase reporter, at 8.9 µM, active compounds read high
Entry flag: TRUE if inhibition reaches 20%; FALSE if it does not.

Reference set, count: 6
| molecule | classification |
| --- | --- |
| Cc1c(C=O)n(C)n(-c2ccccc2)c1=O | FALSE |
| O=C(NCCCN1CCOCC1)c1cc(-c2ccc(Br)cc2)on1 | FALSE |
| CCNC(=O)NC(=O)C(C)OC(=O)CCCSc1nc2ccccc2s1 (stereo not drawn) | FALSE |
| Cc1cccc(C(=O)N2CCC(Cc3ccccc3)CC2)c1[N+](=O)[O-] | FALSE |
| O=[N+]([O-])c1cccc2c(N3CCCC3)ccnc12 | FALSE |
| C/C(CC(=O)NC1C2CC3CC(C2)CC1C3)=N\NC(=O)Cc1cccs1 (stereo not drawn) | FALSE |

Challenge: Confirm if inhibition reported for the molecule `CC(C)CNC(=O)COC(=O)c1c2c(nc3ccccc13)CCC2` is 20% or above.
Response given: FALSE

Challenge: Confirm if inhibition reported for the molecule CCOC(=O)C1(Cc2ccc(Cl)cc2)CCN(C(C)Cc2ccc(O)c(OC)c2)CC1 (stereo not drawn) is 20% or above.
Response given: FALSE

Challenge: Confirm if inhibition reported for the molecule `O=[N+]([O-])c1ccc(Oc2ccc(F)cc2Br)c2ccncc12` is 20% or above.
Response given: FALSE

* * *

# tgt: Receptor-interacting serine/threonine-protein kinase 2 (Homo sapiens) (UniProt O43353)
# Sequence (O43353 whole entry, looked up): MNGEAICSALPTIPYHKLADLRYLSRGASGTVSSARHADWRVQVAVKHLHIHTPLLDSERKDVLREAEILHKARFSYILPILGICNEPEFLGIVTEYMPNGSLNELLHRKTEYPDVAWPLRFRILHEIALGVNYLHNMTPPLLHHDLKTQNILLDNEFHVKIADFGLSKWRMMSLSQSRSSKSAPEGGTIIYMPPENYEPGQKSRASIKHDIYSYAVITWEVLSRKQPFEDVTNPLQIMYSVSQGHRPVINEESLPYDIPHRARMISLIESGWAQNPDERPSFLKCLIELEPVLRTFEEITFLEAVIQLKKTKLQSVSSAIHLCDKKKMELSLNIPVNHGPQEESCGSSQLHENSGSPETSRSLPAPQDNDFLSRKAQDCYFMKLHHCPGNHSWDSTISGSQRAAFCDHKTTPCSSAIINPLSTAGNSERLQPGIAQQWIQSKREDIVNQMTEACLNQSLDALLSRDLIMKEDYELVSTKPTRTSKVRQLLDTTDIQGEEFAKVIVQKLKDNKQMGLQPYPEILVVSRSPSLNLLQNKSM
# assay_comment: NOD2-RIPK2 binding disruptors, retest, confirmation, fluorescence, CHO cells, BLA complementation, triplicate (AID 624370);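 also: 0% = DMSO-only wells and the high end = clavulanate BLA-blocked wells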
# measurement_conditions: CCF4 FRET, at 4.98 µM, active compounds read high
This is one part of the list. Calls of active or inactive are those of the source.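 The calls were made as follows: active = mean inhibition across replicates above a set limit taken from the earlier primary screen (cut at about 21% in these data); inactive = the rest.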
readout_type: inhibition

See these solved cases before continuing.
| smi | tgt | test_result |
| --- | --- | --- |
| O=C1/C(=C\c2ccc([N+](=O)[O-])cc2)CS(=O)(=O)C/C1=C/c1ccc([N+](=O)[O-])cc1 | Receptor-interacting serine/threonine-protein kinase 2 (Homo sapiens) (UniProt O43353) | 91.8% (active) |
| O=C1C=C(c2ccc(Cl)cc2)C(=O)N1Nc1ccccc1 | Receptor-interacting serine/threonine-protein kinase 2 (Homo sapiens) (UniProt O43353) | 90.3% (active) |

Case `Cc1cccc(COc2ccccc2/C=N/Nc2ccc([N+](=O)[O-])cc2)c1` , Receptor-interacting serine/threonine-protein kinase 2 (Homo sapiens) (UniProt O43353), inhibition recorded as 44.2% (active)

Case `O=C(O)c1ccc2c(c1)C(=O)N(c1ccc(/C=C/C(=O)c3ccccc3)cc1)C2=O` , Receptor-interacting serine/threonine-protein kinase 2 (Homo sapiens) (UniProt O43353), inhibition recorded as 5.5% (inactive)

Case `CN1CCN(/N=C/c2ccc(-c3ccc([N+](=O)[O-])cc3)o2)CC1` , Receptor-interacting serine/threonine-protein kinase 2 (Homo sapiens) (UniProt O43353), inhibition recorded as 17.4% (inactive)

* * *

# tgt: Nuclear receptor coactivator 1 (Homo sapiens)
# assay_comment: SRC1 coactivator transcriptional activity inhibitors, confirmation, cell-based, luminescence, quadruplicate (AID 588820);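 also: 0% = DMSO wells and 100% = gossypol 36 µM treated wells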
# measurement_conditions: HEK293 GAL4-SRC1 luciferase reporter, at 3.6 µM, active compounds read high
Reported inhibition values are given for each entry in this list.
Numeric only. Scale: %

| compound | unit_descriptor | inhibition |
| --- | --- | --- |
| O=C(NC1CCCN(Cc2ccccc2F)C1)c1cccc(N2CCCC2=O)c1 (stereo not given) | % | -4.75 |
| Cc1ccc(CNc2ncnc3ccc(-c4ccc(CO)o4)cc23)o1 | % | 11.8 |
| Cc1ccc(OCC(=O)c2cc(C)n(Cc3cccs3)c2C)c([N+](=O)[O-])n1 | % | 24 |
| CN1C(=O)[C@H](Cc2ccc([N+](=O)[O-])cc2)NC1=S | % | 27.2 |

Shift focus to the following entry.
# compound `O=C(CCCN1C(=O)/C(=C/c2ccccc2Cl)SC1=S)NNC(=O)c1ccccc1Cl` ; its inhibition = 40
